Target: T1, full-length human SIRPαV1 D→E on Expi-CHO cells (human, UniProt P78324 31-504)
T1 construct: the entry already carries the change (PDDV to PEDV)
T1 sequence (P78324 31-504 D130E): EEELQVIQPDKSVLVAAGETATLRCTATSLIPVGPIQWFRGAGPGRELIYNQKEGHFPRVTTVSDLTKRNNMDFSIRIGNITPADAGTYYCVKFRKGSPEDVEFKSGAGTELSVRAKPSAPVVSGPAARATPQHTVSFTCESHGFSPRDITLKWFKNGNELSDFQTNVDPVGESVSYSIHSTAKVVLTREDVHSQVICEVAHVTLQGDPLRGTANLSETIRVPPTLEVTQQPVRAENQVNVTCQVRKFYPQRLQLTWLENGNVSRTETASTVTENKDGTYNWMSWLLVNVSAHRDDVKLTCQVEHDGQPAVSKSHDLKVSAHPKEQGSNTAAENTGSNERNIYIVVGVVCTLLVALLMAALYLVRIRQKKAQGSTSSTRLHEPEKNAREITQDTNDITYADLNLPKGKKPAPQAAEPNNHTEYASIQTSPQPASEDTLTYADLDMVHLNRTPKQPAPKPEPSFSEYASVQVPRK
Assay: flow cytometry, Expi-CHO cells
Provide the reported EC50 of each item.
State just the number; it will be interpreted in nM.

Enquiry: Using known records, supply EC50 for Antibody B (antibody, human IgG1, kappa, L234A L235A, V domains shown) VH: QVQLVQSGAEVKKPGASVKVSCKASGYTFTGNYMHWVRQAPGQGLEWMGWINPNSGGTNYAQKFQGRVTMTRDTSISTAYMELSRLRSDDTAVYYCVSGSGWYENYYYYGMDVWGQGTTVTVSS VL: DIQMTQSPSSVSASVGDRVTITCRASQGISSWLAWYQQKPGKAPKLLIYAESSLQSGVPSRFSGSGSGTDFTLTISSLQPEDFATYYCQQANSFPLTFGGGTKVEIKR
Return: 3.7

Enquiry: Given Anti-SIRPα antibody KWAR23 (antibody, V domains shown) VH: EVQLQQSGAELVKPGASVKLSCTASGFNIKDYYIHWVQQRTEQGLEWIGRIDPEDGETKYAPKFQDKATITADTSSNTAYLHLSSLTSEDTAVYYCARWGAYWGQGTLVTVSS VL: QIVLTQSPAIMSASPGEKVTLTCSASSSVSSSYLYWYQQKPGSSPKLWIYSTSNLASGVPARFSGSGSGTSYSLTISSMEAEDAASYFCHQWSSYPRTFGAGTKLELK , respond with its EC50.
Return: 0.2

Enquiry: In one line, give reported EC50 of the entry Antibody D (antibody, human IgG1, kappa, L234A L235A, V domains shown) VH: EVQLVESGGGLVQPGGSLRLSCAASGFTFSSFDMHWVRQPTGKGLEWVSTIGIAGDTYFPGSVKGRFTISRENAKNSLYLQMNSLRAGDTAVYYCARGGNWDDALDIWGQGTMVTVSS VL: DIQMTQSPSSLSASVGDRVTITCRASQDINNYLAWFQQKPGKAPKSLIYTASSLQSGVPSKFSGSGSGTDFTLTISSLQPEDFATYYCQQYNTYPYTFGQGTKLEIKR .
Return: 0.2
